FYI, the data here is from patent US10800746B2.

The entries below are paired with their reported IC50.
Molecular target: human V2 receptor (Homo sapiens (Human), UniProt P30518)
Sequence (P30518 whole entry): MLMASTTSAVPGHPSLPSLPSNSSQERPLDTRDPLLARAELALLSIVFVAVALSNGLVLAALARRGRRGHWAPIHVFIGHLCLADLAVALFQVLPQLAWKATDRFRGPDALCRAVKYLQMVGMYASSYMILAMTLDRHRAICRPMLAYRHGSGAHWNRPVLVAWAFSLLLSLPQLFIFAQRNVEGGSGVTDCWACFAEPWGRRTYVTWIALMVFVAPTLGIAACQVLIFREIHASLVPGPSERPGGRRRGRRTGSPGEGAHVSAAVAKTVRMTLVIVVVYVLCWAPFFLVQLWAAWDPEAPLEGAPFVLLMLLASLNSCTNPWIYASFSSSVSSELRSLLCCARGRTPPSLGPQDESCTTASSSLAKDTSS
Assay: Cellular in vitro assay for vasopressin receptor activity, V2 receptor cell line (CRE-luciferase)
Conditions: CHO cell line transfected with human V2 receptor; [Arg8]-vasopressin at EC50; read-out: IC50 hV2

{"compound": "CC(=O)c1nc(Cn2nc(-c3ccc(Cl)cc3)n(C[C@H](O)C(F)(F)F)c2=O)nn1-c1ccccc1Cl", "target system": "human V2 receptor (Homo sapiens (Human), UniProt P30518)", "IC50 (nM)": 4.9}
{"compound": "CC(=O)c1nc(Cn2nc(-c3ccc(Cl)cc3)n(C[C@H](O)C(F)(F)F)c2=O)nn1-c1cccc(Cl)c1", "target system": "human V2 receptor (Homo sapiens (Human), UniProt P30518)", "IC50 (nM)": 2.3}
{"compound": "CC(O)c1nc(Cn2nc(-c3ccc(Cl)cc3)n(CC(=O)C(F)(F)F)c2=O)nn1-c1cccc(Cl)c1 (stereo not drawn)", "target system": "human V2 receptor (Homo sapiens (Human), UniProt P30518)", "IC50 (nM)": 2.8}
{"compound": "CC(=O)c1nc(Cn2nc(-c3ccc(Cl)cc3)n(C[C@H](O)C(F)(F)F)c2=O)nn1-c1cccc(F)c1", "target system": "human V2 receptor (Homo sapiens (Human), UniProt P30518)", "IC50 (nM)": 6.2}
{"compound": "CC(=O)c1nc(Cn2nc(-c3ccc(Cl)cc3)n(CC(=O)C(F)(F)F)c2=O)nn1-c1cccc(Cl)c1", "target system": "human V2 receptor (Homo sapiens (Human), UniProt P30518)", "IC50 (nM)": 7.7}
{"compound": "COC(=O)Cn1nc(-c2ccccc2Cl)nc1Cn1nc(-c2ccc(Cl)cc2)n(C[C@H](O)C(F)(F)F)c1=O", "target system": "human V2 receptor (Homo sapiens (Human), UniProt P30518)", "IC50 (nM)": 6.7}

###

Test system: Wistar rats
Assay: Diuresis investigations in conscious rats kept in metabolism cages
Assay type: in vivo
Conditions: rat, 3.0 mg/kg p.o.
The entries below are paired with their reported Urinary volume [% vs. control = 100%].

{"molecule": "O=C(O)Cn1nc(Cn2nc(-c3ccc(Cl)cc3)n(C[C@H](O)C(F)(F)F)c2=O)nc1-c1ccccc1Cl [Example No. WO 2011/104322 60]", "target system": "Wistar rats", "units label": "% vs. control = 100%", "Urinary volume [% vs. control = 100%]": 84}
{"molecule": "O=c1n(Cc2cn(-c3ccccc3Cl)cn2)nc(-c2ccc(Cl)cc2)n1C[C@H](O)C(F)(F)F [Example No. WO 2011/104322 110]", "target system": "Wistar rats", "units label": "% vs. control = 100%", "Urinary volume [% vs. control = 100%]": 274}
{"molecule": "NC(=O)Cn1nc(Cn2nc(-c3ccc(Cl)cc3)n(C[C@H](O)C(F)(F)F)c2=O)nc1-c1ccccc1Cl [Example No. WO 2011/104322 68]", "target system": "Wistar rats", "units label": "% vs. control = 100%", "Urinary volume [% vs. control = 100%]": 121}
{"molecule": "CC(=O)c1nc(Cn2nc(-c3ccc(Cl)cc3)n(C[C@H](O)C(F)(F)F)c2=O)nn1-c1ccccc1Cl [Example 3]", "target system": "Wistar rats", "units label": "% vs. control = 100%", "Urinary volume [% vs. control = 100%]": 679}
{"molecule": "O=c1n(Cc2cn(-c3ccccc3Cl)nn2)nc(-c2ccc(Cl)cc2)n1C[C@H](O)C(F)(F)F [Example No. WO 2011/104322 101]", "target system": "Wistar rats", "units label": "% vs. control = 100%", "Urinary volume [% vs. control = 100%]": 255}
